Data provenance: PubChem BioAssay (NCI)

Test system: HCC-2998 colon
test-description: NCI-60 one-dose screen, 48 h
assay-context: 10 µM unless noted
Compounds without any hit were thinned out: in the full panel of roughly 83,000, 20% have a hit. The source made the active and inactive calls. The calls were made as follows: active = growth percent below 10; inactive = the rest.
API: response.call in Yes for active, No for inactive

# count of solved cases: 3
>  <compound>
CN1C(=O)/C(=C\c2c(Cl)cccc2Cl)c2ccccc21

>  <assigned-label>
No

$$$$
>  <compound>
O=C1c2c(c3c4ccccc4[nH]c3c3ccc4ccccc4c23)C(=O)N1CCN1CCNCC1

>  <assigned-label>
No

$$$$
>  <compound>
O=S(=O)(Nc1ccc(F)cc1F)c1ccc(-c2cnc(C3CC3)o2)cc1

>  <assigned-label>
No

$$$$

What was the test verdict on COC(=O)C1Cc2ccccc2CN1C(=O)c1ccc2c(c1)Cc1ccccc1-2 (centres undefined) ?
No

What was the test verdict on "O=C(CN1CCOCC1)Nc1nc(-c2cc3ccccc3oc2=O)cs1" ?
No
